TESTED SYSTEM: T1, Dsk2-UBL D64K (Saccharomyces cerevisiae, UniProt P48510 1-75, D64K)
T1 sequence: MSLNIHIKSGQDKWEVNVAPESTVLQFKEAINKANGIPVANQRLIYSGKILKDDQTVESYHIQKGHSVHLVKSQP
ASSAY DETAILS: NMR titration
QUANTITY MEASURED: pKd
Quick note: pKd values are minus log10 of concentrations in mol/L.

Input line: For Rpn10 C-terminal construct Rpn10_(204-268) (domain or fragment, Saccharomyces cerevisiae, UniProt P38886 204-268, looked up) GSGGDSDANGTFMDFGVDPSMDPELAMALRLSMEEEQQRQERLRQQQQQQDQPEQSEYPEQHQDK , write its pKd.
Output line: 4.41
